Assay: NCI Yeast Anticancer Drug Screen. Data for the mec2-1 strain (AID 157)
Details: S. cerevisiae mec2-1 strain, at 5.0 µM (retest, dose inferred, filed as 0.5), stronger effect = higher value
About 79,000 compounds went through this panel and 15% of them were active in at least one assay; those are over-represented in the sample as a whole.
Threshold rule: growth inhibition greater than or equal to 40% is yes (1); below that, no (0).

> print(dat)
                            smiles.notation  class.name
1  O=C1c2cccc3cc([N+](=O)[O-])cc(c23)C(=O)N1CCN1CCCC1      no (0)
2   N#C/C(=C1C=C/C(=N/O)c2ccccc2/1)c1ccccc1      no (0)
3       Cn1ncc2cc3c(Nc4ccc(Cl)cc4)cccc3nc21      no (0)
4  N#Cc1sc2c(c1OC(=O)c1ccco1)c(=O)n(-c1ccccc1)c(=S)n2-c1ccccc1      no (0)
5            BrCc1ccccc1C(c1ccccc1)c1ccccc1      no (0)

Decide: is the reported value of growth inhibition for COc1ccc2c(c1)[nH]c1c(/C=C/c3ccccc3)nccc12 equal to or greater than 40%?
yes (1)

Decide: is the reported value of growth inhibition for CCOC(=O)C1=C(C)NC(C)=C(C(=O)OCC)C1c1ccccc1Cl equal to or greater than 40%?
yes (1)

Decide: is the reported value of growth inhibition for CCN1/C(=C/c2ccc3ccccc3[n+]2CC)C=Cc2ccccc21 equal to or greater than 40%?
yes (1)

Decide: is the reported value of growth inhibition for O=C1CC(=O)N(C2CCCCC2)C(=O)N1c1ccccc1S(=O)(=O)Oc1ccccc1 equal to or greater than 40%?
yes (1)

Decide: is the reported value of growth inhibition for S=c1[nH]c2c(Cl)c(Cl)c(Cl)c(Cl)c2[nH]1 equal to or greater than 40%?
yes (1)

Decide: is the reported value of growth inhibition for Cc1c(-c2ccccc2)[nH]c2ccccc12 equal to or greater than 40%?
yes (1)

Reference source: PubChem BioAssay (NCI)
